Let's look at some variants and their measured protein stability index.
B1: FBXO3 (parent)
chain: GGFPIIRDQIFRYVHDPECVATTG

# Variants of: B1
# Assay Overview: protein stability index of a GFP-peptide fusion (GPS, HEK-293T) (PSI 1-6); higher = more stable;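 further: lentivirally expressed fusions sorted by FACS into six bins by GFP to DsRed ratio, PSI derived from sequencing read proportions per bin multiplied by bin number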
# Experimental Context: c terminus: a fixed tail appended
Please reply with the number alone, leaving off any unit.

What value of measured protein stability index is listed for GKFPIIRDQIFRYVHDPECVATTG [G2K] ?
2.54

The record that follows has no protein stability index shown yet.
What value of measured protein stability index is listed for GGFPIIRDQIFRYVHDPECIATTG [V20I] ?
2.19

All values here come from the supplement of paper PMC10567573.
